Catalogue of interaction score readings, one per entry.
assayed target: T1, 4H1384-AA
T1 chain: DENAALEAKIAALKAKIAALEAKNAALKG
assay text: two-hybrid library CCmax;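 further: natural log of median RNA to DNA barcode read ratio; higher means stronger binding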
study conditions: mean of both orientations

- binder: "DENAALEAKIAALKAEIAALEAKIAALEG [4H1349-AA]"
  interaction score: 1.03
- binder: "DENAALEAEIAALEAEIAALKAKNAALKG [4H1040-AA]"
  interaction score: 0.28
- binder: "DEIAALEAENAALEAEIAALEAKIAALEG [4H133-AA]"
  interaction score: 0.598
- binder: "DENAALEAENAALKAKIAALKAKIAALKG [4H1262-AA]"
  interaction score: -0.839
